These data points were gathered from PubChem BioAssay (NCI).

Each entry below carries its recorded TGI.
- Test system: KM12 colon
- test.protocol: NCI tumour cell line growth inhibition, 48 h

[[record]]
compound = "N#CCC1(n2cc(-c3ncnc4[nH]ccc34)cn2)CN(C2CCN(C(=O)c3ccnc(C(F)(F)F)c3F)CC2)C1"
readout_label = "TGI"
measurement = "> 100 µM"

[[record]]
compound = "Cc1ccc(C2=C(Cl)C(=O)C(c3ccc(C)cc3)=C(Cl)C2=O)cc1"
readout_label = "TGI"
measurement = "> 100 µM"

[[record]]
compound = "COc1ccc(/C=C/C(C)=N/OCC(=O)Nc2ccc(Cl)cc2)cc1"
readout_label = "TGI"
measurement = "16.5 µM"

[[record]]
compound = "CC(C)=Nn1cnc2c1NC(C)(C)N=C2C(N)=O"
readout_label = "TGI"
measurement = "> 10 µM"

[[record]]
compound = "CC(C)[C@@H]1NC(=O)[C@@H]2N=C(O[C@H]2C)[C@H](C(C)C)NC(=O)C2N=C1O[C@H]2C"
readout_label = "TGI"
measurement = "> 100 µM"


"COc1cc(N(CCC#N)CCC#N)ccc1/C(N=Nc1ccc(C(=O)O)cc1)=N/NC(=O)c1cc(Br)ccc1O" yielded TGI of > 150 µg/mL

Note to self: TGI recorded for "COc1cc(/C=C2\C(=O)N(C)c3ccccc32)cc(OC)c1OC" was 30.1 µM

Briefly, TGI measured for "C[C@]12CCC3=NCCN3C1=CC[C@@H]1[C@@H]2CC[C@@]2(C)[C@H]1CC[C@]2(C)O" : > 100 µM

Notebook: NC(=O)c1ncn(C2OC(CO)C(O)C2O)c1N (centres undefined) , TGI read as > 100 µM

Kindly note the recorded TGI for N#CC(NNC(=O)c1ccccc1O)c1c(O)ccc2ccccc12 (centres undefined) , which is > 100 µM
